The compounds listed here are annotated with their MIC.
system: Staphylococcus aureus; assay: Antibacterial activity against methicillin resistant Staphylococcus aureus clinical isolate 011; type: functional
State the answer as a number, implicitly in µg/mL.

Known results for compounds:
{"columns": ["Compound", "MIC [µg/mL]"],
 "data": [
  ["CCCCCCc1c(-c2ccc(OCCCCNCCC)cc2OCCCCNCCC)oc2cc(OC)cc(O)c2c1=O", 2],
  ["CCCCCCc1c(-c2ccc(OCCCCNCCCCCCCCN)cc2OCCCCNCCCCCCCCN)oc2cc(OC)cc(O)c2c1=O", 1],
  ["CCCCCCc1c(-c2ccc(OCCCCNCc3ccc(F)cc3)cc2OCCCCNCc2ccc(F)cc2)oc2cc(OC)cc(O)c2c1=O", 16],
  ["CCCCCCc1c(-c2ccc(OCCCCNCCCN)cc2OCCCCNCCCN)oc2cc(OC)cc(O)c2c1=O", 0.25],
  ["CCCCCCNCCCCOc1ccc(-c2oc3cc(OC)cc(O)c3c(=O)c2CCCCCC)c(OCCCCNCCCCCC)c1", 16]
]}

Exercise: May I ask what MIC has been recorded for CCCCCCc1c(-c2ccc(OCCCCN3CCCC(C)C3)cc2OCCCCN2CCCC(C)C2)oc2cc(OC)cc(O)c2c1=O (stereo not drawn) ?
Solution: 2

Exercise: Any idea what its MIC is? The compound is CCCCCCc1c(-c2ccc(OCC(=O)CN[C@H](CCCNC(=N)N)C(N)=O)cc2OCC(=O)CN[C@H](CCCNC(=N)N)C(N)=O)oc2cc(OC)cc(O)c2c1=O
Solution: 32

Exercise: Requested read-out: MIC. Entry: CCCCCCc1c(-c2ccc(O)cc2O)oc2cc(OC)cc(O)c2c1=O
Solution: 4

* * *

test system: Enterococcus faecalis; experiment: Antibacterial activity against multidrug resistant Enterococcus faecalis ATCC 51299; assay type: functional
Attribute: log10 of MIC
On a log10 scale: recorded MIC, unit µg/mL.

{"columns": ["Record smiles", "Study system", "log10 of MIC"],
 "data": [
  ["CCCCCCCCc1c(-c2ccc(O)cc2O)oc2cc(OC)cc(O)c2c1=O", "Enterococcus faecalis", 1.20],
  ["CCCCc1c(-c2ccc(O)cc2O)oc2cc(O)cc(O)c2c1=O", "Enterococcus faecalis", 1.51],
  ["CCCCCCc1c(-c2ccc(OCCCCNCCCN)cc2OCCCCNCCCN)oc2cc(OC)cc(O)c2c1=O", "Enterococcus faecalis", 0.00],
  ["COc1cc(O)c2c(=O)c(CCCCc3ccccc3)c(-c3ccc(O)cc3O)oc2c1", "Enterococcus faecalis", 1.20],
  ["CC(C)=CCc1c(O)ccc(C(=O)[C@@H]2[C@@H](c3ccc(O)cc3O)CC(C)=C[C@H]2c2c(O)cc(O)c3c(=O)c(CC=C(C)C)c(-c4ccc(O)cc4O)oc23)c1O", "Enterococcus faecalis", 0.70]
]}

Exercise: Bench note: what log10 of MIC did CCCCCCc1c(-c2ccc(OCCCCNCCc3ccccc3)cc2OCCCCNCCc2ccccc2)oc2cc(OC)cc(O)c2c1=O show?
Solution: 0.60

Exercise: Any idea what its log10 of MIC is? The molecule is CC(C)=CCc1c(-c2ccc(O)cc2O)oc2c([C@H]3C=C(C)C[C@@H](c4ccc(O)cc4O)[C@@H]3C(=O)c3ccc(O)cc3O)c(O)cc(O)c2c1=O
Solution: 0.70
